Hey, just so you know, these numbers are from patent US6589934B1.

- systemUnderTest: human kv2.1 (Homo sapiens, UniProt Q14721)
- Construct: A HindIII-Notl fragment containing full length 2.1 was isolated from pBS/kv2.1 and subcloned to pcDNA3 for expression
- procedureSummary: Whole cell patch clamp block of Kv2.1 in stably expressing CHO cells
- settings: CHO cells stably expressing Kv2.1, whole cell patch clamp
measuredQuantity: IC50

[ask] What IC50 value was documented for this compound, `CN1C[C@@H]2CN(CCCCc3ccc4c(c3)OCCO4)C[C@H](C1)[C@@H]2OC(=O)c1ccc(Cl)cc1` ?
[reply] ~300 nM

====

- systemUnderTest: human kv2.1 (Homo sapiens, UniProt Q14721)
- Construct: A HindIII-Notl fragment containing full length 2.1 was isolated from pBS/kv2.1 and subcloned to pcDNA3 for expression; expressed in transfected cells
- Sequence (Q14721 1-858): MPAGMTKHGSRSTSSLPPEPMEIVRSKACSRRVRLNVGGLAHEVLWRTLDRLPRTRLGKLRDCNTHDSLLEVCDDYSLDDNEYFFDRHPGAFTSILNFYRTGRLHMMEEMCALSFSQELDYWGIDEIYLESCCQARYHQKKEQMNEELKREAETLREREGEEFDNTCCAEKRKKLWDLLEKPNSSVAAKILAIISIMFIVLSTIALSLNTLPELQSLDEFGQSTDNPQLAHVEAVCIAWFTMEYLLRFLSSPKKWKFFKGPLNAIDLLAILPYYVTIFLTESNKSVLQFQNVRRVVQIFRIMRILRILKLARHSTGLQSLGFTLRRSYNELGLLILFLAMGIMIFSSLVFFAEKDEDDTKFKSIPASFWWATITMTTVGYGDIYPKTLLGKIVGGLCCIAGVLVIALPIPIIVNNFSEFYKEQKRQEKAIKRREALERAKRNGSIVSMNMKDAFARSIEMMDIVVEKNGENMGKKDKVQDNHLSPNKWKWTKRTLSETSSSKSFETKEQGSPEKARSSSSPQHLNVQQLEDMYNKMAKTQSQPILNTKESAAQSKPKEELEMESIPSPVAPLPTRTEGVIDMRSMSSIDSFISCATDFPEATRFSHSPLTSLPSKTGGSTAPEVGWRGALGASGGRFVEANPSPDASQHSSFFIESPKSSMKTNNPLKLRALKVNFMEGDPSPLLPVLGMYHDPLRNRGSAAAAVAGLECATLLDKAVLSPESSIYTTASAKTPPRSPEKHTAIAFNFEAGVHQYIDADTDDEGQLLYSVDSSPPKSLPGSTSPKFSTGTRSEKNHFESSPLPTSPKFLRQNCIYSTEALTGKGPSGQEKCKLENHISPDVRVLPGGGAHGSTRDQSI
- procedureSummary: Whole cell patch clamp block of Kv2.1 in stably expressing CHO cells
- Type: cell-based
- settings: CHO cells stably expressing Kv2.1, whole cell patch clamp
pIC50: −log10 of the molar value.
measuredQuantity: pIC50

[ask] Identify the measured pIC50 of hanatoxin (ECRYLFGGCKTTSDCCKHLGCKFRDKYCAWDFTFS) [reference compound] for human kv2.1 (Homo sapiens, UniProt Q14721).
[reply] ~7.22
